Assay: Mean residence time in BALB/c mouse at 3 mg/kg, iv measured up to 24 hrs by LC-MS/MS analysis
Format: ADME, organism-based
Conditions: in vivo
Catalogue of molecules with associated MRT
A number alone suffices; assume min.

molecule	MRT (min)
NC(CCCCB(O)O)(CNS(N)(=O)=O)C(=O)O (configuration not stated)	48.6

Now for a further molecule.
# query: MRT of entry N=C(N)NCC(N)(CCCCB(O)O)C(=O)O (configuration not stated)
15.6

====

Experiment: Mean residence time in Sprague-Dawley rat at 3 mg/kg, iv measured up to 24 hrs by LC-MS/MS analysis
Type: ADME, organism-based
Details: in vivo
reported-endpoint: MRT (h)
Lab book: enter the figure in h, no units written.

// MRT lookup, key: `N=C(N)NC[C@](N)(CCCCB(O)O)C(=O)O`
11.9

====

Test: Oral bioavailability in Sprague-Dawley rat at 10 mg/kg measured up to 24 hrs by LC-MS/MS analysis
Assay type: ADME, organism-based
Conditions: in vivo
reported-endpoint: bioavailability (%)
// return numeric value only (unit: %, not printed)

Param item = `N[C@@H](CCCCB(O)O)C(=O)O` ; retrieve measured bioavailability.
89

====

Assay: Clearance in rat
Format: ADME
Conditions: in vivo
reported-endpoint: clearance (mL/min/kg)
Kindly provide the numeric value in mL/min/kg only, without the unit symbol.

Which clearance is listed for `C[C@H](N)C(=O)N1C[C@H](CCCB(O)O)[C@](N)(C(=O)O)C1` ?
10

====

Experiment: Clearance in Sprague-Dawley rat at 3 mg/kg, iv measured up to 24 hrs by LC-MS/MS analysis
Assay type: ADME, organism-based
Settings: in vivo
reported-endpoint: clearance (mL/min/kg)
Provide only the numeric value, understood in mL/min/kg.

For the molecule shown here, `N[C@@H](CCCCB(O)O)C(=O)O` , give the reported clearance.
2.3

====

Test: Oral bioavailability in rat
Type: ADME, organism-based
Details: in vivo
reported-endpoint: bioavailability (%)
Report the figure in % without appending any unit label.

Give its bioavailability value. Item: `C[C@H](N)C(=O)N1C[C@H](CCCB(O)O)[C@](N)(C(=O)O)C1`
52
